- measured-target: p53 Y220C mutant protein (amino acid residues 94-293) (Homo sapiens, UniProt P04637, Y220C)
- Construct: p53 Y220C mutant protein (amino acid residues 94-293)
- test-name: Thermal Shift Assay (TSA), dTM
- Assay type: binding
- condition-parameters: thermal shift, 100 uM compound; read-out: TSA P53 Y220C dTM (100 uM)
Structures can show the parent of a compound that is named as a salt.
# ΔTm at 100 µM annotations

Worked cases, answers included:
compound: COc1cc(S(C)(=O)=O)ccc1NCC#Cc1nc2c(NC3CCN(C)CC3)cc(-c3ccccc3)cn2c1CC(F)(F)F [Example 34, formic acid salt]
ΔTm at 100 µM: 1 to 5 °C
--
compound: CNC(=O)c1ccc(NCC#Cc2nc3c(N[C@H]4CCN(C)C(=O)C4)cccn3c2SC(F)(F)F)c(OC)c1
ΔTm at 100 µM: 5 to 10 °C
--
compound: COc1ccc(C(N)=O)nc1NCC#Cc1nc2c(N[C@@H]3CCN(C)C[C@@H]3F)cccn2c1SC(F)(F)F
ΔTm at 100 µM: ≥ 10 °C

// next item, ΔTm at 100 µM requested
What value of ΔTm at 100 µM has been recorded for this entry: "C[C@@H](O)C#Cc1nc2c(N[C@@H]3CCN(C)C[C@@H]3F)cccn2c1CC(F)(F)F"
5 to 10 °C

---

Entries and their IC50
- Test system: H1299 p53 Y220C
- test-name: Cell Proliferation Assay (CellTiter-Glo, CTG), H1299 p53 Y220C (NClH1299-inducible p53 Y220C)
- Type: cell-based
- condition-parameters: Homo sapiens, NCI-H1299, 120 h, CellTiter-Glo, H1299 p53 Y220C, 5 days

// below: answered molecules
molecule: COc1cc2c(cc1NCC#Cc1nc3c(N[C@@H]4CCN(C)C[C@@H]4F)cccn3c1SC(F)(F)F)CNC2=O
result: < 750 nM

molecule: C[C@H](O)C#Cc1nc2c(N[C@@H]3CCN(C)C[C@@H]3F)cccn2c1CC(F)(F)F
result: > 3000 nM

molecule: CNC(=O)c1ccc(NCC#Cc2nc3c(N[C@@H]4CCN(C)C[C@@H]4F)cccn3c2NC)c(OC)c1
result: > 3000 nM

Next molecule, IC50 to be filled in.
Query (molecule): "CNC(=O)c1ccc(NCC#Cc2nc3c(NC4CCN(C)CC4)cccn3c2SC(F)(F)F)c(OC)c1" ; field requested: IC50
< 750 nM

---

# Emax per entry
- measured-target: p53 Y220C (Homo sapiens, UniProt P04637, Y220C)
- test-name: Luciferase Reporter Assay (Luc), p53 response element, NClH1299 cells with inducible p53 Y220C
- Type: cell-based
- condition-parameters: luciferase reporter, NClH1299 inducible p53 Y220C, 6 hour; 10 uM tool compound as positive control

Some entries whose results are on file:
compound: C=CC(=O)Nc1c(C#CCNc2ccc(C(=O)NC)cc2OC)nc2c(N[C@@H]3CCN(C)C[C@@H]3F)cccn12 [Example 23]
Emax: < 70%
--
compound: CNC(=O)c1ccc(NCC#Cc2nc3c(N[C@@H]4CCN(C)C[C@@H]4F)cccn3c2CC(F)(F)F)c(OC(F)(F)F)c1 [Example 53]
Emax: 70 to 80%
--
compound: CNC(=O)c1ccc(NCC#Cc2nc3c(NCC4(F)CN(C)C4)cccn3c2SC(F)(F)F)c(OC)c1 [Example 181]
Emax: 80 to 90%

Next item in the queue.
What Emax appears in the records for this compound with p53 Y220C (Homo sapiens, UniProt P04637, Y220C)? COc1cc(S(C)(=O)=O)ccc1NCC#Cc1nc2c(NC3CC4(COC4)C3)cccn2c1CC(F)(F)F [Example 115]
< 70%
